Documented FACS signal across a set of binders
Molecular target: human CLDN6 fused to GFP, expressed on engineered HEK293T cells (human) (UniProt P56747)
Experiment: FACS, 293T clone with human CLDN6, 1.5 ug Ab
I only need the number, thanks.

Use these answered entries as a reference point.
binder	FACS signal
AB11-3 (antibody, V domains shown) VH: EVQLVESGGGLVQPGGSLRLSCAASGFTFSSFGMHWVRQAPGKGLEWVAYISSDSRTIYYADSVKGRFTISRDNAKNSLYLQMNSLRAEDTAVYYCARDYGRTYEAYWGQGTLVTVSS VL: DIVLTQSPDSLAVSLGERATINCRASKSVSTSGYSYIHWYQQKPGQPPKLLIYLASNLESGVPDRFSGSGSGTDFTLTISSVQAEDVAVYYCQHSRELPLTFGQGTKLELK	2360
AB4-3 (antibody, V domains shown) VH: QVQLVQSGAEVKKPGASVKVSCKASGYTFTSYTMHWVRQAPGQGLEWMGYINPSSTYTHYAQKFQGRVTMTADTSTSTVYMELSSLRSEDTAVYYCSRGELGGFAYWGQGTLVTVSS VL: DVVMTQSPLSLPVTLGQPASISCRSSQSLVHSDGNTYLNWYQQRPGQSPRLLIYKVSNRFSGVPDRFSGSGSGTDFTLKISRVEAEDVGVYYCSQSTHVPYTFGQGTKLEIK	47800
AB4-8 (antibody, V domains shown) VH: QVQLVQSGAEVKKPGASVKVSCKASGYTFTSYTMHWVRQAPGQGLEWMGYINPSSTYTHYIKKFKDRVTMTADTSTSTVYMELSSLRSEDTAVYYCSRGELGGFAYWGQGTLVTVSS VL: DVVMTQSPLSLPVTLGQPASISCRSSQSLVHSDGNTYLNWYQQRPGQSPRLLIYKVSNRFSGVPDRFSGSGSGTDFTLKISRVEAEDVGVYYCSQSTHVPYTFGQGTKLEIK	77600
AB1-4 (antibody, V domains shown) VH: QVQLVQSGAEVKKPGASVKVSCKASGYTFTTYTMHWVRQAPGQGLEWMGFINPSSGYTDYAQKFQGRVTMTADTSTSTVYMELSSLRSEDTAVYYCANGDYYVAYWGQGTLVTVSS VL: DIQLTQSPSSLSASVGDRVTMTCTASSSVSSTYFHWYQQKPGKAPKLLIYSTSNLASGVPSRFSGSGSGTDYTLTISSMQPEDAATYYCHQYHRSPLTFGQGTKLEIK	197000

Asked: Give its FACS signal value. Item: AB3-4 (antibody, V domains shown) VH: EVQLLESGGGLVQPGGSMRLSCAASGFTFSNYWMNWVRQAPGKGLEWVAQIRLKSDNYATHYADSVKGRFTISRDDSKNTVYLQMNSLRAEDTGVYYCNDGPPSGYWGQGTLLTVSS VL: DIQMTQSPSSLSASVGDRVTITCRISENIYSYLAWYQQKPGKAPKLLIYNAKILVEGVPSRFSGSGSGTDFTLTISSLQPEDFATYYCQHHYTVPWTFGQGTKLEIK
Given back: 55800
